# Tested on: HOP-92 NSCLC
# ASSAY_NAME: NCI-60 one-dose screen, 48 h
# CONDITION_INFO: 10 µM unless noted
Compounds without any hit were thinned out: in the full panel of roughly 83,000, 20% have a hit. Active and inactive are the calls of the source. Rule for the calls: active = growth percent below 10; inactive = the rest.
Field 'call' accepts true for active, false for inactive

Solved cases below.
>  <COMPOUND>
O=[N+]([O-])c1ccc(P(=O)(O)O)cc1

>  <ASSIGNED_CLASS>
false

$$$$
>  <COMPOUND>
CCCn1cc2c3c(cccc31)[C@H]1C[C@@H](C)CN(C)[C@@H]1C2

>  <ASSIGNED_CLASS>
false

$$$$

Lab log entry: CCCCn1c(=O)c(C(=O)NCc2ccccc2Cl)c(O)c2ccccc21 — outcome as called in the assay?
false

Please state the recorded outcome for this compound: CC(C)CCC1C(=O)NC(=O)NC1=O
false

Per the records of this test, what outcome belongs to O=NN(c1ccccc1)c1ccccc1 ?
false

What did the test return for O=C1CCCCC1CN1CCCCC1 (stereo not drawn) ?
false

Give the logged outcome of this assay for the following compound: O=C1C=C(N2CC2)c2ccccc2C1=O
false

---

# Tested on: SK-OV-3 ovarian
# ASSAY_NAME: NCI-60 one-dose screen, 48 h (100 = growth as untreated, 0 = no growth, -100 = all killed)
# CONDITION_INFO: 10 µM unless noted
Compounds without any hit were thinned out: in the full panel of roughly 83,000, 20% have a hit. Calls of active or inactive are those of the source. How the source made its calls: active means growth percent below 10; inactive means the rest.
REPORTED_PROPERTY: growth

Reference set (5 entries):
>  <STRUCTURE_SMILES>
CC1(C)C=Cc2c(ccc3c2[N+]([O-])=C2C3=C[C@@]34NC(=O)[C@]5(CCCN5C3=O)C[C@@H]4C2(C)C)O1

>  <OBSERVED_MEASUREMENT>
85.5% (inactive)

$$$$
>  <STRUCTURE_SMILES>
CC[C@H](C)[C@H](NC(=O)[C@H]1CCCCN1C)C(=O)N(C)[C@H](C[C@@H](OC(C)=O)c1nc(C(=O)N[C@@H](Cc2ccccc2)C[C@H](C)C(=O)O)cs1)C(C)C

>  <OBSERVED_MEASUREMENT>
12.3% (inactive)

$$$$
>  <STRUCTURE_SMILES>
ClCc1ccc(Cl)c(Cl)c1

>  <OBSERVED_MEASUREMENT>
106% (inactive)

$$$$
>  <STRUCTURE_SMILES>
CCCCOC(N)=O

>  <OBSERVED_MEASUREMENT>
100% (inactive)

$$$$
>  <STRUCTURE_SMILES>
Cc1ccccc1-n1c(/C=C\c2ccccn2)nc2ccccc2c1=O

>  <OBSERVED_MEASUREMENT>
86.6% (inactive)

$$$$

Please give the measured growth for this molecule: C/C(=C\c1ccn(-c2ccc(N)c(C(F)(F)F)c2)n1)[C@@H]1C[C@@H]2O[C@]2(C)CCC[C@H](C)[C@H](O)[C@@H](C)C(=O)C(C)(C)[C@@H](O)CC(=O)O1
45% (inactive)

Name the reported growth value associated with the molecule N#CC(C#N)=Cc1cccc(F)c1
105% (inactive)

Sample O=C(Cc1ccccc1)c1ccccc1 — what was its growth?
113% (inactive)

---

# System: MDA-MB-231 breast
# ASSAY_NAME: NCI-60 one-dose screen, 48 h
# CONDITION_INFO: 10 µM unless noted
The panel holds about 83,000 compounds, 20% with a hit somewhere; the sample as a whole holds those more often. Active and inactive are the calls of the source. Rule for the calls: active = growth percent below 10; inactive = the rest.
Your reply should match one of these outcome classes. true (active), false (inactive)

>  <COMPOUND>
COc1ccc(N(CC(=O)NCCC[Te]c2ccccc2)C(=O)c2ccccc2)cc1

>  <ASSIGNED_CLASS>
false

$$$$
>  <COMPOUND>
CCN(CC)CCn1c(=O)n(C)c2ccccc21

>  <ASSIGNED_CLASS>
false

$$$$
>  <COMPOUND>
CC[C@H](C)[C@H](NC(=O)CN(C)C)C(=O)N(C)[C@H](C[C@@H](OC(C)=O)c1nc(C(=O)NC23C4C5C2C2C3C4C52C(=O)OC)cs1)C(C)C (some centres undefined)

>  <ASSIGNED_CLASS>
true

$$$$
>  <COMPOUND>
C/C(=N/OC(=O)N(C)C)c1ccc(Cl)c(Cl)c1

>  <ASSIGNED_CLASS>
false

$$$$
>  <COMPOUND>
O=C(O)c1ccccc1N(CCO)CCCl

>  <ASSIGNED_CLASS>
false

$$$$

Record lookup: outcome of this test for S=P(SP(=S)(c1ccccc1)c1ccccc1)(c1ccccc1)c1ccccc1 ?
false

For COC(=O)CCP(CCC(=O)OC)c1ccccc1 , what call appears in the results of this test?
false

Write down the call the test reported for this compound. Item: N[C@@H](CCC(=O)CCl)C(=O)O
false

Please state the recorded outcome for this compound: N#Cc1ccc(Cl)cc1
false

What outcome does the record of this test show for C[C@]12CC[C@@H](OC(=O)N(CCCl)N=O)C[C@@H]1CC[C@@H]1[C@@H]2CC[C@]2(C)C(=O)CC[C@@H]12 ?
false

What is the recorded call for this compound in the test? NC(N)=NC(N)=Nc1ccc(Cl)cc1
false

What was the test verdict on CCCCn1c(=O)c(C(=O)NCc2ccccc2Cl)c(O)c2ccccc21 ?
false

Any idea what this test logged for Cc1cc(C(C)(C)C)ccc1O ?
false

---

Collected growth values appear next to each entry.
# Tested on: MDA-MB-231 breast
# ASSAY_NAME: NCI-60 one-dose screen, 48 h (100 = growth as untreated, 0 = no growth, -100 = all killed)
# CONDITION_INFO: 10 µM unless noted
# Description: Cells are grown in 96 well plates and exposed to the test compound for 48 hours. Compounds are tested at a single concentration, which is 10^-5 M for most compounds. The reported endpoint is percent growth (GI% or GIPRCNT), where numbers from 0 - 100% represent growth inhibition, and numbers from -100% - 0 represent cell death. For example, a value of 40 represents 60% growth inhibition. A value of 0 means no net growth occurred over the course of the experiment. […]
About 83,000 compounds went through this panel and 20% of them were active in at least one assay; those are over-represented in the sample as a whole.
The reply should be a number in %, with the unit left off.

Which growth is listed for C=CCOC(=O)C(Br)CC (stereo not drawn) ?
93.6

What value of measured growth is listed for COC(=O)[C@@H](C)C[C@H](Cc1ccccc1)NC(=O)c1cccc([C@@H](C[C@H](C(C)C)N(C)C(=O)[C@@H](NC(=O)[C@H]2CCCCN2C)C2CC2)OC(C)=O)n1 ?
-20.4

Please look up its growth: CC[C@H](CC[C@@H](C)[C@H]1CC[C@H]2[C@@H]3CC[C@H]4C[C@]5(CC[C@]4(C)[C@H]3CC[C@]12C)OO[C@](C)(C(F)(F)F)O5)C(C)C
94.5

---

# Tested on: NCI-H23 lung
# ASSAY_NAME: NCI-60 one-dose screen, 48 h
# CONDITION_INFO: 10 µM unless noted
This is part of a sample that, as a whole, favours compounds with a hit. Of some 83,000 tested, about 20% had one in any assay. Activity calls are given as the source filed them. How the source made its calls: active means growth percent below 10; inactive means the rest.
Returns: one label drawn from active, inactive

What did the test return for COc1cc2c(cc1OC)-c1c3c(cc4c1[C@@H](C2)N(C)CC4)OCO3 ?
inactive

---

# reported growth; entries follow
# System: LOX IMVI melanoma
# ASSAY_NAME: NCI-60 one-dose screen, 48 h (100 = growth as untreated, 0 = no growth, -100 = all killed)
# CONDITION_INFO: 10 µM unless noted
The panel holds about 83,000 compounds, 20% with a hit somewhere; the sample as a whole holds those more often.
Kindly answer with a numeric value in %, unit omitted.

>  <COMPOUND>
CCCN1C(=O)NC(=O)C(CC)(N2C(=O)c3c(F)c(F)c(F)c(F)c3C2=O)C1=O (stereo unspecified)

>  <UNIT_INFO>
%

>  <growth>
-55.9

$$$$
>  <COMPOUND>
c1ccc2c(c1)O[As](O[As]1Oc3ccccc3O1)O2

>  <UNIT_INFO>
%

>  <growth>
30.9

$$$$
>  <COMPOUND>
Oc1ccccc1C=NCCN=Cc1ccccc1O.[Fe]

>  <UNIT_INFO>
%

>  <growth>
-80.2

$$$$
>  <COMPOUND>
CC[C@H](C)[C@H](NC(=O)CN(C)C)C(=O)N(C)[C@H](C[C@@H](OC(C)=O)c1nc(C(=O)NC23C4C5C2C2C3C4C52C(=O)OC)cs1)C(C)C (stereo partly specified)

>  <UNIT_INFO>
%

>  <growth>
15.3

$$$$
>  <COMPOUND>
O=CC1(c2ccccc2)CCN(Cc2ccccc2)CC1

>  <UNIT_INFO>
%

>  <growth>
82.8

$$$$

Query (compound): C/C=C(/C)C(=O)O[C@H]1CC[C@@]2(C)[C@@H]3CC[C@H]4[C@]5(O)C[C@H](O)[C@@]6(O)[C@@H](CN7C[C@@H](C)CC[C@H]7[C@@]6(C)O)[C@]5(O)C[C@@]42O[C@@]13O ; field requested: growth
104
